assay: Tissue distribution: blood concentration and brain distribution by HPLC; assay type: in vivo, C57BL/6 (B6) mice; details: male, C57BL/6, mouse, brain, intraperitoneal, 2 mg/kg

[
  {
    "INPUT_SMILES": "COCOc1cc(/C=C/C(=O)/C=C/c2cc(OCOC)cc(OCOC)c2)cc(OCOC)c1",
    "concentration at 1 h, ng/g": 0
  }
]

----------
assay: Tissue distribution: blood concentration and brain distribution by HPLC; format: in vivo, C57BL/6 (B6) mice; settings: male, C57BL/6, mouse, serum, intraperitoneal, 2 mg/kg
RECORDED_ENDPOINT: concentration at 6 h (ng/mL)

[
  {
    "INPUT_SMILES": "COCOc1cc(/C=C/C(=O)/C=C/c2cc(OCOC)cc(OCOC)c2)cc(OCOC)c1",
    "QUANTITATIVE_READOUT": 58.2
  }
]
